# Target or test system: T1, human PPARδ ligand binding domain (amino acids 139-441) (human, UniProt Q03181 139-441, Biotinylated (site not stated) in the FRET assays; unlabelled in fluorescence polarization and SPR.)
# T1 construct: placed at the N-terminus here; Biotinylated for FRET; also called PPARδ LBD
# T1 sequence: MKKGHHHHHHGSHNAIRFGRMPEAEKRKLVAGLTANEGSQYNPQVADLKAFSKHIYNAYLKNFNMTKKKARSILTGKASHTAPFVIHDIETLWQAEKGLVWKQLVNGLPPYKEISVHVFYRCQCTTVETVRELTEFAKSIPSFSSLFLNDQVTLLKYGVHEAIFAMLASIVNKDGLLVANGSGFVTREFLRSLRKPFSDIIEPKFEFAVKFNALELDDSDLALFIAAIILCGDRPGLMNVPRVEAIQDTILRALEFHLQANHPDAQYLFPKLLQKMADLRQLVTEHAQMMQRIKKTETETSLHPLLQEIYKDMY
# Measurement description: fluorescence polarization, 10 nM fluorescein peptide, LBD titrated, no ligand
Primed or numbered codes have the meaning given here. No end group written: not given here. fluorescein = fluorescein: fluorescein label attached at the N-terminus of the peptide; fluorescein″ = fluorescein label attached to the peptide N-terminus

Binder	Output unit	Kd
fluorescein-GHSFADPASNLGLEDIIRKALMGSF (also called NCOR peptide; NCoR 2251-2275) [Fluoroscein-NCOR ID-C peptide (NCoR amino acids 2251-2275)]	µM	5.7
{fluorescein″}-TNMGLEAIIFKALMGKYDQWEE [Fluoroscein-SMRT ID-C peptide]	µM	7.7
